assay_target: PDGFRα (Homo sapiens (Human), UniProt P16234)
Sequence (P16234 24-1089): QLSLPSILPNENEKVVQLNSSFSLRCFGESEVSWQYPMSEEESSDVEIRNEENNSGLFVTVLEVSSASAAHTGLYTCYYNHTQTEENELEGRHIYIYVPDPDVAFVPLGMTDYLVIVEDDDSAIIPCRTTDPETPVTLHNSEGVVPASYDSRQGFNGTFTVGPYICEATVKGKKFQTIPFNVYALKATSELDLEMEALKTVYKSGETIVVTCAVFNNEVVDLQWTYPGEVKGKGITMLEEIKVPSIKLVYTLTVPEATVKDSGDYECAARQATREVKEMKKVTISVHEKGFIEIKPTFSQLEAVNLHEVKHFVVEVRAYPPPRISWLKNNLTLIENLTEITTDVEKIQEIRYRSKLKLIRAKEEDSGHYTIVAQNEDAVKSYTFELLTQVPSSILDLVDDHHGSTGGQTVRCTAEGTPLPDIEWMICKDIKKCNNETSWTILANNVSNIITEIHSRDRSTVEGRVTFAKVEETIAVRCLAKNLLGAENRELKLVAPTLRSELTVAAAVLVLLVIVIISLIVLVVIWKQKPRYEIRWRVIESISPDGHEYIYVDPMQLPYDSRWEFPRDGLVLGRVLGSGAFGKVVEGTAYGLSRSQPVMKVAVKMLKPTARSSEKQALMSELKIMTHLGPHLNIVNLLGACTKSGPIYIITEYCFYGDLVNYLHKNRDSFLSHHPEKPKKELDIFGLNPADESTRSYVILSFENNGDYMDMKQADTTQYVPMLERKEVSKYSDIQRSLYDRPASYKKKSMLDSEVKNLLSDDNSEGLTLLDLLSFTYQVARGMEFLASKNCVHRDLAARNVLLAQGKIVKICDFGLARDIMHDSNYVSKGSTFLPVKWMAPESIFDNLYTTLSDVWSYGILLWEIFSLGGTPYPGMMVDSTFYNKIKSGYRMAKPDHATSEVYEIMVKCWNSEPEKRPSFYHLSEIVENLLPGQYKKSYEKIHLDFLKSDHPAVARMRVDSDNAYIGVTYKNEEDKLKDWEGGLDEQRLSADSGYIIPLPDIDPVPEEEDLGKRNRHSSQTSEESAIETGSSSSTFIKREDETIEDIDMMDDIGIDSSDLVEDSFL
protocol_details: Inhibition of PDGFRα kinase activity (HTRF KinEASE-TK)
test_context: biochemical, HTRF KinEASE-TK
Method: Inhibition of c-Kit, PDGFRα, PDGFRβ, CSFIR and FLT3 Kinase Activity Compounds were evaluated to determine the potency with which they inhibit the kinase activity of the following panel of tyrosine kinases: c-Kit (SignalChem, Product #: K06-11BG), PDGFRα (SignalChem, Product #: P12-18G), PDGFRβ (SignalChem, Product #: P13-11G), CSFIR (SignalChem, Product #: C74-11G) and FLT3 (Invitrogen, Product #: PR4666C). […]
test_readout: IC50

compound	test_readout	observed_result
Cc1cc(F)c(C(=O)NCC(F)(F)F)cc1NC(=O)c1cnc(N)s1 [Example 122]	IC50	> 1 µM
Cc1cc(F)c(C(=O)Nc2cnn(C3CC3)c2)cc1NC(=O)c1cnc(N)s1 [Example 161]	IC50	0.1 to 1 µM
Cc1cc(F)c(C(=O)Nc2ccc3c(n2)COC3)cc1NC(=O)c1cnc(N)s1 [Example 120]	IC50	> 1 µM
Cc1cc(F)c(C(=O)Nc2cc(C(F)(F)F)ccn2)cc1NC(=O)c1cnc(N)s1 [Example 178]	IC50	< 0.1 µM
Nc1ncc(C(=O)Nc2cc(C(=O)Nc3cnc(C4CC4)cn3)c(F)cc2Cl)s1 [Example 205]	IC50	0.1 to 1 µM
Cc1ncc(C(=O)Nc2cc(C(=O)NCc3cccc(F)c3F)c(F)cc2C)s1 [Example 265]	IC50	> 1 µM
Cc1cc(F)c(C(=O)Nc2cnn(C)c2)cc1NC(=O)c1cnc(N)s1 [Example 167]	IC50	> 1 µM

[in] Please look up its IC50: Cc1cc(F)c(C(=O)Nc2ccc3c(n2)COCC3)cc1NC(=O)c1cnc(N)s1 [Example 114]
[out] 0.1 to 1 µM
